pKi: −log10 of the molar value.
// compounds with pKi on Non-receptor tyrosine-protein kinase TYK2 (Homo sapiens, UniProt P29597), multi-source literature
Sequence (P29597 whole entry): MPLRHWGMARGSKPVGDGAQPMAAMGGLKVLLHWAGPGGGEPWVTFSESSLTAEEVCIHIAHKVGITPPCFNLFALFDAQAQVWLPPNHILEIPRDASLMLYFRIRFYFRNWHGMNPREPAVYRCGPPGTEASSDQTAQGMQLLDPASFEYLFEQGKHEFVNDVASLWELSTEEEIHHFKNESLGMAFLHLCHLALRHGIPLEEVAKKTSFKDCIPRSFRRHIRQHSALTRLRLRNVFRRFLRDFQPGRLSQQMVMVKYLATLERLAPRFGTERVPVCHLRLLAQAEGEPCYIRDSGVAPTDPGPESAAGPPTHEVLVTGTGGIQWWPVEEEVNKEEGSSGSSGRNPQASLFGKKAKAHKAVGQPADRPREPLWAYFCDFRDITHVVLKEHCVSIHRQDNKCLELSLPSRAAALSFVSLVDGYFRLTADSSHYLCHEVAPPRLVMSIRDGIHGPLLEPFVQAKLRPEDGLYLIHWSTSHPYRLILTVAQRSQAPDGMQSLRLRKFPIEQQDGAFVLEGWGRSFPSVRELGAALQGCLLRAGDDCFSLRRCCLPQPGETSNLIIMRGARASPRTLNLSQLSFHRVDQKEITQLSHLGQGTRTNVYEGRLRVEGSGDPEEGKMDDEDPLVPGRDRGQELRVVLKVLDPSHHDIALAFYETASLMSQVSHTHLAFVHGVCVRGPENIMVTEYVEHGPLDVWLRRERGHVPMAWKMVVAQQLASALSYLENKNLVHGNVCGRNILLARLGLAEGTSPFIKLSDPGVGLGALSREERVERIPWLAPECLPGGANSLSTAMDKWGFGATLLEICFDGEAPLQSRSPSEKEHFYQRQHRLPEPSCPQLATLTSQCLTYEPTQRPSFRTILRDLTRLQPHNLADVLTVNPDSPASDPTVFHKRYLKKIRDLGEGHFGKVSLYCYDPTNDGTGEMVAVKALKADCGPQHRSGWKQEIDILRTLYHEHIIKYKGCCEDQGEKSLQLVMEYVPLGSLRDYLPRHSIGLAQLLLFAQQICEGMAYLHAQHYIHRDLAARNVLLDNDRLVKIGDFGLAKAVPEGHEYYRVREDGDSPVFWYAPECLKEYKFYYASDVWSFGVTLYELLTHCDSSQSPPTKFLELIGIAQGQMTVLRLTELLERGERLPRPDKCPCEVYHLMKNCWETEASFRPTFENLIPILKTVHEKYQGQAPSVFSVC

[ask] Answer with pKi of `O=C1NCc2nc(-c3c(F)cccc3F)cc(Nc3ccc(C(=O)N4CCC(F)(F)CC4)cc3)c21` measured for Non-receptor tyrosine-protein kinase TYK2 (Homo sapiens, UniProt P29597).
[reply] > 8.00

[ask] Answer with pKi of `C[C@@H]1CCC[C@H](C)N1c1ccc(Nc2cc(-c3c(F)cccc3F)nc3c2C(=O)NC3)nc1` measured for Non-receptor tyrosine-protein kinase TYK2 (Homo sapiens, UniProt P29597).
[reply] > 8.00

[ask] Answer with pKi of O=C1NCc2nc(-c3c(F)cccc3F)cc(Nc3ccc(N4CCCC(O)C4)cn3)c21 (centres undefined) measured for Non-receptor tyrosine-protein kinase TYK2 (Homo sapiens, UniProt P29597).
[reply] > 8.00

[ask] Answer with pKi of `O=C1NCc2nc(-c3c(F)cccc3F)c(F)c(Nc3ccc(N4CCOCC4)cn3)c21` measured for Non-receptor tyrosine-protein kinase TYK2 (Homo sapiens, UniProt P29597).
[reply] > 8.00

[ask] Answer with pKi of `CCNC(=O)c1ccc(Nc2cc(-c3c(F)cccc3F)nc3c2C(=O)NC3)cn1` measured for Non-receptor tyrosine-protein kinase TYK2 (Homo sapiens, UniProt P29597).
[reply] > 8.00

[ask] Answer with pKi of O=C1NCc2nc(-c3c(F)cccc3F)nc(Nc3ccc(C4CCCNC4=O)cc3)c21 (stereo in doubt; 15b) measured for Non-receptor tyrosine-protein kinase TYK2 (Homo sapiens, UniProt P29597).
[reply] 8.41

[ask] Answer with pKi of `N#Cc1ccnc(Nc2nccc3nc(-c4c(Cl)cccc4Cl)[nH]c23)c1` measured for Non-receptor tyrosine-protein kinase TYK2 (Homo sapiens, UniProt P29597).
[reply] 9.15

[ask] Answer with pKi of `O=C1NCc2nc(-c3c(F)cccc3F)cc(Nc3ccc(N4CCN(CCC(F)(F)F)CC4)cn3)c21` measured for Non-receptor tyrosine-protein kinase TYK2 (Homo sapiens, UniProt P29597).
[reply] > 8.00

[ask] Answer with pKi of `Clc1cccc(Cl)c1-c1nc2ccnc(Nc3cc(N4CCN(C5COC5)CC4)ncn3)c2[nH]1` measured for Non-receptor tyrosine-protein kinase TYK2 (Homo sapiens, UniProt P29597).
[reply] 8.92
